Reference source for all entries: ChEMBL document CHEMBL4837222

Recorded CLint scaled for the following compounds
- Experimental Details: Intrinsic clearance in rat
- Type: ADME

{"Line Notation": "O=C(/C=C/CNCCOc1ccc(Oc2c(-c3ccc(F)cc3)sc3cc(O)ccc23)cc1)N1CCC1", "CLint scaled (mL/min/kg)": 65.1}
{"Line Notation": "O=C(c1ccc(F)cc1)C1CCN(CCn2c(=O)[nH]c3ccccc3c2=O)CC1", "CLint scaled (mL/min/kg)": 132}

* * *

- Experimental Details: Half life in rat liver microsomes
- Assay type: ADME, Microsome
# reported half-life; entries follow

{"Line Notation": "O=C(/C=C/CNCCOc1ccc(Oc2c(-c3ccc(F)cc3)sc3cc(O)ccc23)cc1)N1CCC1", "half-life (min)": 38.1}
{"Line Notation": "O=C(c1ccc(F)cc1)C1CCN(CCn2c(=O)[nH]c3ccccc3c2=O)CC1", "half-life (min)": 18.8}
